- SUBJECT_OF_TEST: Bcat-Halo (beta-catenin HaloTag construct expressed in HEK293 cells) (UniProt P35222)
- Sequence (P35222 whole entry): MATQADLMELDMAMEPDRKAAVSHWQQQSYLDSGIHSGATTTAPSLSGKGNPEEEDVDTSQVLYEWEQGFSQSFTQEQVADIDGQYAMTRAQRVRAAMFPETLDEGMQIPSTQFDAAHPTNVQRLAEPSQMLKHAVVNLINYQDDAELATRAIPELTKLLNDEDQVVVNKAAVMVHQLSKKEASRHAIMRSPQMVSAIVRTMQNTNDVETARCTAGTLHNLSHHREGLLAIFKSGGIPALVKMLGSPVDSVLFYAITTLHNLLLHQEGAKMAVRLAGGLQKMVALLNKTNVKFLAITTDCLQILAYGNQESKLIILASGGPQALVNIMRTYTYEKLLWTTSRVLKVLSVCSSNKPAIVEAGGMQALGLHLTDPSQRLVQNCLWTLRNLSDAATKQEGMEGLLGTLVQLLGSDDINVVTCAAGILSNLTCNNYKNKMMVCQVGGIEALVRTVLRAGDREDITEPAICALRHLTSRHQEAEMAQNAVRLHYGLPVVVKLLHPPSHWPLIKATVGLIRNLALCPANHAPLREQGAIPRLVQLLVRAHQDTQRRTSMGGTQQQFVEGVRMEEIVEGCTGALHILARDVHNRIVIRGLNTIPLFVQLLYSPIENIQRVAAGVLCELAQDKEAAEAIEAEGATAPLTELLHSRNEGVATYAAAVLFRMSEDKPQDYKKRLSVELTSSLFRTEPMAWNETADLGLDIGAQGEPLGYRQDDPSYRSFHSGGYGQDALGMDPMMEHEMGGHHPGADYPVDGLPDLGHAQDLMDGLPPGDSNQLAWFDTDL
- MEASUREMENT_DESCRIPTION: NanoBRET target engagement in HEK293 cells, absolute IC50; competitor TCF4-Luc
Starred links: 1 amine or outer side, 2 acyl side, 3 side chain; linkers in the order of their positions; H or OH if unused. Positions of bridges follow the written chain, without caps; N, C: chain ends. Non-standard residues stand in square brackets, D forms with d. TfeGA = (S)-2-amino-3-((carboxymethyl)(2,2,2-trifluoroethyl)amino)propanoic acid, O=C([C@H](CN(CC(=O)[*:3])CC(F)(F)F)N[*:1])[*:2]; PyrS2 = (S)-3-amino-1-((pent-4-en-1-yloxy)carbonyl)pyrrolidine-3-carboxylic acid, C=CCCCOC(=O)N1CC[C@@](N[*:1])(C(=O)[*:2])C1; B5 = 2-amino-2-(pent-4-en-1-yl)hept-6-enoic acid, C=CCCCC(CCCC=C)(N[*:1])C(=O)[*:2]; Phe(3-COOH) = N[C@@H](Cc1cccc(C(=O)O)c1)C(=O)O; Phe(2-Cl) = N[C@@H](Cc1ccccc1Cl)C(=O)O; Bta = N[C@@H](Cc1csc2ccccc12)C(=O)O; αAllylPro = C=CC[C@@]1(C(=O)O)CCCN1; tBuAla = CC(C)(C)C[C@H](N)C(=O)O; Nle = CCCC[C@H](N)C(=O)O; Aib = CC(C)(N)C(=O)O
ENDPOINT_NAME: IC50 (µM)

# input Value lookup for IC50; key = Ac-[αAllylPro]D[tBuAla][B5]D[Phe(3-COOH)][Aib]GFL[PyrS2][Phe(2-Cl)][Bta]Q-NH2 (staple 1-4, 4-11) [I-1689]
# output 12.5

(A) Ac-[αAllylPro]D[tBuAla][B5]D[TfeGA][Aib]AFT[PyrS2][Phe(2-Cl)][Bta]Q-NH2 (staple 1-4, 4-11) [I-1693]
(B) Ac-[αAllylPro]D[tBuAla][B5]D[TfeGA][Aib]GFT[PyrS2][Phe(2-Cl)][Bta]Q-NH2 (staple 1-4, 4-11) [I-1696]
(C) Ac-[αAllylPro]D[tBuAla][B5]D[TfeGA][Nle]AFT[PyrS2][Phe(2-Cl)][Bta]Q-NH2 (staple 1-4, 4-11) [I-1692]
# input Please rank these binders by IC50 in descending order. Lab note: final answer is the ordered label list.
# output B, C, A
(B: 35.5 µM, C: 10.4 µM, A: 4.6 µM)
